Provide the recorded EC50 for the entries that follow.
# target: β2 adrenergic receptor (Homo sapiens (Human))
# assay-info: cAMP Gs dynamic HTRF assay, β2 expressing CHO cells
# Assay type: cell-based
# applied-conditions: B2-AR; CHO-K1 (HitHunter); read-out: Average pEC50 [Receptor subtype: B2-AR; Cell type: CHO-K1 (HitHunter)] (converted)

Looking up CNCc1cccc([C@@H](O)CN[C@H](C)Cc2ccc(OC)cc2)n1 , I found its EC50 recorded as 100 to 1000 nM

Looking up CC(C)(C)NC[C@@H](O)c1cccc(OC(F)(F)F)n1 , I found its EC50 recorded as 100 to 1000 nM

Looking up CC(C)Oc1cccc([C@H](O)CNC(C)(C)C)n1 , I found its EC50 recorded as 100 to 1000 nM

Looking up CC(C)(C)NC[C@@H](O)c1cccc(-c2ccncc2)n1 , I found its EC50 recorded as 10 to 100 nM

Looking up CC(C)(C)NCC(O)c1cccnc1Cl (stereo not drawn) , I found its EC50 recorded as 10 to 100 nM

Looking up CC(C)(C)NC[C@H](O)c1ccc(C(F)(F)F)cn1 , I found its EC50 recorded as 10 to 100 nM

Looking up CC(C)(C)NC[C@H](O)c1cccc(-n2ccnc2)n1 , I found its EC50 recorded as 10 to 100 nM

Looking up CC(C)(C)NC[C@H](O)c1cccc(-c2ccccc2)n1 , I found its EC50 recorded as < 10 nM

Looking up CC(C)(C)NC[C@@H](O)c1cccc(-c2cccnc2)n1 , I found its EC50 recorded as 10 to 100 nM

====

# assay-info: Rat CNS exposure measurement (plasma, CSF, brain)
# Assay type: in vivo, male SD rats
# applied-conditions: male, SD, CSF, IV 1 mg/kg, read-out: Concentration, CSF
endpoint-label: concentration at 1 h (ng/mL)
Numeric only. Scale: ng/mL

Looking up CC(C)(C)NC[C@H](O)c1cccc(C#N)n1 [Compound 03-5] , I found its concentration at 1 h recorded as 113

====

# assay-info: Mouse CNS exposure measurement (plasma, CSF, brain)
# Type: in vivo, male C57BL/6J mice
# applied-conditions: male, C57BL/6J, in vivo, sc, 1 mg/kg, SC 1 mg/kg, 60 min, read-out: Concentration, Brain
endpoint-label: concentration at 60 min (ng/g)
Numeric only. Scale: ng/g

Looking up Cc1ncccc1[C@@H](O)CNC(C)(C)C [Compound 03-115] , I found its concentration at 60 min recorded as 280

====

# assay-info: Mouse pharmacokinetic studies
# Type: in vivo, male C57BL/6J mice
# applied-conditions: male, C57BL/6J, plasma, PO 5 mg/kg
endpoint-label: AUC(0-t) (ng·h/mL)
Numeric only. Scale: ng·h/mL

Looking up CC(C)(C)NC[C@H](O)c1cccc(C#N)n1 , I found its AUC(0-t) recorded as 6070

Looking up CC(C)(C)NC[C@H](O)c1cccc(C(F)(F)F)n1 , I found its AUC(0-t) recorded as 3870

====

# assay-info: Mouse CNS exposure measurement (plasma, CSF, brain)
# Assay type: in vivo, male C57BL/6J mice
# applied-conditions: male, C57BL/6J, CSF, po, 5 mg/kg, PO 5 mg/kg, 100 min, read-out: Concentration, CSF
endpoint-label: concentration at 100 min

Looking up CC(C)(C)NC[C@H](O)c1cccc(C(F)(F)F)n1 , I found its concentration at 100 min recorded as 302 ng/mL

====

# target: β2 adrenergic receptor (Homo sapiens (Human), UniProt P07550)
# Sequence (P07550 whole entry, species assumed): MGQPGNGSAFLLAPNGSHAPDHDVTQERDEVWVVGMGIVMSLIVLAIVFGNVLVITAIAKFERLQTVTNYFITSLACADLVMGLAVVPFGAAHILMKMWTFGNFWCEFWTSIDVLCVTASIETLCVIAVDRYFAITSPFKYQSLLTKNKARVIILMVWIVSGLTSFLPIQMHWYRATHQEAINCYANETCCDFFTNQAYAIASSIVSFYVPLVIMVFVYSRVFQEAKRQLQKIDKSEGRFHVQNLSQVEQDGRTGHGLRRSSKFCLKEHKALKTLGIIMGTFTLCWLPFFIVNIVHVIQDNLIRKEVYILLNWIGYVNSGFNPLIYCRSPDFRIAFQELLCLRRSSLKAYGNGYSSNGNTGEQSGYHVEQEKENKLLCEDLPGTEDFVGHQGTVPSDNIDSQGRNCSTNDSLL
# assay-info: cAMP Gs dynamic HTRF assay, β2 expressing CHO cells
# Type: cell-based
# applied-conditions: B2-AR; CHO-K cells; read-out: Average EC50 [Receptor subtype: B2-AR; Cell type: CHO-K]
pEC50: −log10 of the molar value.
Provide the recorded pEC50 for the entries that follow.

Looking up CC(C)(C)NC[C@@H](O)c1cccc(C2CCOCC2)n1 [Compound 03-122] , I found its pEC50 recorded as 6.00 to 7.00

Looking up CN(C)c1cccc([C@@H](O)CNC(C)(C)C)n1 [Compound 03-153] , I found its pEC50 recorded as > 8.00

Looking up CC(C)(C)NC[C@H](O)c1cccc(-n2cccc2)n1 [Compound 03-123] , I found its pEC50 recorded as > 8.00

Looking up CC(C)(COc1ccccc1)NC[C@H](O)c1cccc(C(F)(F)F)n1 [Compound 03-184] , I found its pEC50 recorded as 7.00 to 8.00

Looking up Cc1cccc(-c2cccc([C@@H](O)CNC(C)(C)C)n2)c1 [Compound 03-147] , I found its pEC50 recorded as > 8.00

Looking up [2H]C([2H])([2H])C(NCC(O)c1cccc(C(F)(F)F)n1)(C([2H])([2H])[2H])C([2H])([2H])[2H] (stereo not shown) [Compound 03-49] , I found its pEC50 recorded as 6.00 to 7.00

Looking up CC(C)(C)NC[C@H](O)c1cccc(-c2cccc(Cl)c2)n1 [Compound 03-129] , I found its pEC50 recorded as > 8.00

====

# target: β2 adrenergic receptors in human astrocytoma cells (1321N1) (Homo sapiens (Human))
# Sequence (P07550 whole entry): as the sequence (P07550 whole entry, species assumed) above
# assay-info: cAMP HTRF assay in human astrocytoma cells (1321N1)
# Format: cell-based
# applied-conditions: Endogenous receptor; 1321N1 cells; read-out: Average pEC50 [Receptor subtype: Endogenous; Cell type: 1321N1] (converted)
endpoint-label: EC50

Looking up Cc1ccc([C@@H](O)CNC(C)(C)C)nc1C(F)(F)F [Compound 03-167] , I found its EC50 recorded as < 0.01 µM

Looking up CCOc1cccc([C@@H](O)CNC(C)(C)C)n1 [Compound 03-177] , I found its EC50 recorded as < 0.01 µM

Looking up CC(C)(C)NC[C@@H](O)c1cccc(-n2ccnc2)n1 [Compound 03-228] , I found its EC50 recorded as < 0.01 µM

Looking up CC(C)(C)NC[C@H](O)c1cccc(C(C)(F)F)n1 [Compound 03-169] , I found its EC50 recorded as 0.1 to 1 µM

Looking up CC(C)(C)NC[C@@H](O)c1cccc(Cl)n1 [Compound 03-230] , I found its EC50 recorded as 0.1 to 1 µM

====

# assay-info: Dog pharmacokinetic studies
# Format: in vivo, male Beagle dogs
# applied-conditions: male, Beagle, plasma, PO 1 mg/kg
Provide the recorded AUC(0-inf) for the entries that follow.
Numeric only. Scale: µg·h/mL

Looking up CC(C)(C)NC[C@H](O)c1cccc(C(F)(F)F)n1 , I found its AUC(0-inf) recorded as 0.584

Looking up CC(C)(C)NC[C@H](O)c1cccc(C#N)n1 , I found its AUC(0-inf) recorded as 0.273

====

# assay-info: Mouse pharmacokinetic studies
# Assay type: in vivo, male C57BL/6J mice
# applied-conditions: male, C57BL/6J, in vivo, PO 5 mg/kg, read-out: MRTInf—obs
# Procedure: The rat pharmacokinetics studies of exemplary compounds 03-3, 03-5, and 03-115 were conducted with male SD rats. These rats were typically about 6-8 weeks old, weighing 200 g to 300 g. Animals were fasted overnight and free access to food 4 hours after dosing. A required volume of vehicle was added to reach the target concentration of the test article and vehicle component to prepare for the dosing. […] Samples were analyzed using LC-MS/MS. […]
endpoint-label: MRT inf (h)
Numeric only. Scale: h

Looking up Cc1ncccc1[C@@H](O)CNC(C)(C)C [Compound 03-115] , I found its MRT inf recorded as 1.8

====

# assay-info: Monkey pharmacokinetic studies
# Type: in vivo, male Non-Naïve Cynomolgus Monkeys
# applied-conditions: male, cynomolgus monkey, plasma, PO 0.3 mg/kg
endpoint-label: half-life (min)
Numeric only. Scale: min

Looking up CC(C)(C)NC[C@H](O)c1cccc(C#N)n1 , I found its half-life recorded as 272

Looking up CC(C)(C)NC[C@H](O)c1cccc(C(F)(F)F)n1 , I found its half-life recorded as 259

====

Provide the recorded Cmax for the entries that follow.
# assay-info: Mouse pharmacokinetic studies
# Assay type: in vivo, male C57BL/6J mice
# applied-conditions: male, C57BL/6J, plasma, PO 5 mg/kg
# Procedure: The rat pharmacokinetics studies of exemplary compounds 03-3, 03-5, and 03-115 were conducted with male SD rats. These rats were typically about 6-8 weeks old, weighing 200 g to 300 g. Animals were fasted overnight and free access to food 4 hours after dosing. A required volume of vehicle was added to reach the target concentration of the test article and vehicle component to prepare for the dosing. […] Samples were analyzed using LC-MS/MS. […]
Numeric only. Scale: ng/mL

Looking up CC(C)(C)NC[C@H](O)c1cccc(C#N)n1 [Compound 03-5] , I found its Cmax recorded as 1940

Looking up CC(C)(C)NC[C@H](O)c1cccc(C(F)(F)F)n1 [Compound 03-3] , I found its Cmax recorded as 1020

// provenance: patent US10947196B2
